Target: HIV-1 Integrase (Human immunodeficiency virus type 1 group M subtype B, UniProt P04585)
Assay: HIV-1 integrase strand transfer inhibition
Format: biochemical
readout.label: IC50

HIV-1 Integrase (Human immunodeficiency virus type 1 group M subtype B, UniProt P04585) data for CCC1=NN(c2cccc(Br)c2)C(=O)/C1=C\c1ccc(OC)c(OCc2ccc(F)cc2)c1 ; its IC50: > 100 µM

Value (IC50, HIV-1 Integrase (Human immunodeficiency virus type 1 group M subtype B, UniProt P04585)) for record COc1ccc(/C=C2\C(=O)N(c3ccc(NS(C)(=O)=O)cc3)N=C2C(F)(F)F)cc1OCc1ccc(F)cc1 = > 100 µM

For the compound COc1ccc(/C=C2\C(=O)N(c3cccc(Br)c3)N=C2C(F)(F)F)c(OC)c1OC , the measured IC50 on HIV-1 Integrase (Human immunodeficiency virus type 1 group M subtype B, UniProt P04585) was > 100 µM

Source listed as paper PMC2957562.
